So I've got a bunch of compounds here, and I need their uninfected host cell viability values.
tested on: HFF; assay: uninfected host cell viability relative to vehicle control; higher = less host cell toxicity; settings: 5 µM; 72 h; oxygen 21 %
Screen size: about 1,000 compounds; about 15 (2%) showed an effect of 50% or more. Shown is part of a subset that was picked to be rich in strong results.
Reply with just the number (in %).

Lab note: measured uninfected host cell viability of `O=c1cc(N2CCOCC2)oc2c1ccc1ccccc12` was 82.9

Please fill in: uninfected host cell viability reported for `Cc1ccc(NC2=CC(=O)c3sc(C)nc3C2=O)cc1` = 16.8

Reported uninfected host cell viability ( `CCCCCCNC(=O)Nc1ccc(S(=O)(=O)Nc2ccc(CCNC[C@H](O)COc3ccc(O)cc3)cc2)cc1` ) = 83.4

Reported uninfected host cell viability ( `Cc1nn(C)c2nc(NNC(=O)Nc3cc(Cl)nc(Cl)c3)cc(C(C)C)c12` ) = 89.2

uninfected host cell viability reading for `CCc1c2c(nc3ccc(O)cc13)-c1cc3c(c(=O)n1C2)COC(=O)[C@]3(O)CC` : 77.3

uninfected host cell viability for Cc1cc(Cn2cnc3c2CC(C(=O)O)N(C(=O)C(c2ccccc2)c2ccccc2)C3)ccc1N(C)C (centres undefined) is 82.1

Per the record, `CC1(C)CCC(C)(C)c2cc(C3(c4ccc(C(=O)O)cc4)OCCO3)ccc21` has uninfected host cell viability of 93.1

get_value(item= `CCCCc1nn(-c2ccccc2C(F)(F)F)c(=O)n1Cc1ccc(-c2ccccc2S(=O)(=O)NC(=O)c2sccc2C)cc1` , readout=uninfected host cell viability) returns 84.8

# uninfected host cell viability (compound: `CN1Cc2c(C(=O)OC(C)(C)C)ncn2-c2ccsc2C1=O` ) is 97.9

Origin of the recorded values: the supplement of paper PMC4894684
